biological target: KRAS WT (Homo sapiens (Human), UniProt P01116+P62937); assay: Ras-Raf (BRAF RBD) disruption / FRET / MOA assay, KRAS WT; assay type: biochemical; details: read-out: IC50* KRAS WT FRET data
Sequence (P01116-2 other isoform, or with tags, fused parts or gaps): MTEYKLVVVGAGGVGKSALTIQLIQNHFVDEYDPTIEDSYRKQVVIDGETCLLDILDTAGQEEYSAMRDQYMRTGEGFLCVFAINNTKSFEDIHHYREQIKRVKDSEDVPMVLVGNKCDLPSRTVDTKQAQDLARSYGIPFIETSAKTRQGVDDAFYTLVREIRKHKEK
Sequence (P62937 whole entry): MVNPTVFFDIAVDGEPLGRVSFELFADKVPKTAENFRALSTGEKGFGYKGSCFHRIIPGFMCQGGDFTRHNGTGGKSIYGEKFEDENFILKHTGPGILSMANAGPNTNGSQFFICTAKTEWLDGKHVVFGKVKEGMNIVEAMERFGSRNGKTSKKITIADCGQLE
pIC50: −log10 of the molar value.
measurement.kind: pIC50

// below: answered compounds
- CCn1c(-c2cccnc2[C@H](C)OC)c2c3cc(ccc31)-c1csc(n1)C[C@H](NC(=O)[C@H](C(C)C)N1CCC3(CN(C(=O)C#CC(C)(C)N(C)C)C3)C1=O)C(=O)N1CCC[C@H](N1)C(=O)OCC(C)(C)C2 (atropisomer, axis not shown): < 5.00
- CCn1c(-c2cccnc2[C@H](C)OC)c2c3cc(ccc31)-c1csc(n1)C[C@H](NC(=O)[C@H](C(C)C)N(C)C(=O)N(C)C1CN(C(=O)/C=C/[C@@H]3CCCN3C)C1)C(=O)N1CCC[C@H](N1)C(=O)OCC(C)(C)C2 (atropisomer, axis not shown): 6.00 to 7.00
- CCn1c(-c2cccnc2[C@H](C)OC)c2c3cc(ccc31)-c1csc(n1)C[C@H](NC(=O)[C@H](C(C)C)N(C)C(=O)N1CCC3(CC1)CN(C(=O)/C=C/C(F)F)C3)C(=O)N1CCC[C@H](N1)C(=O)OCC(C)(C)C2 (atropisomer, axis not shown): 6.00 to 7.00

Inquiry: Entry CCn1c(-c2cccnc2[C@H](C)OC)c2c3cc(ccc31)N1CCO[C@@H](C[C@H](NC(=O)[C@H](C(C)C)N(C)C(=O)[C@@]3(F)CCC(C(=O)C#CC(C)(C)N4CCC4)C3)C(=O)N3CCC[C@H](N3)C(=O)OCC(C)(C)C2)C1 (stereo partly drawn) has what pIC50?
Reply text: 5.00 to 6.00

Inquiry: Moving on to the next compound: CO[C@@H](C)c1ncccc1-c1c2c3cc(ccc3n1CC(F)(F)F)-c1cc(F)cc(c1)C[C@H](NC(=O)[C@@H](COC1CN(C(=O)C#CC(C)(C)N(C)C)C1)C(C)C)C(=O)N1CCC[C@H](N1)C(=O)OCC(C)(C)C2 (atropisomer, axis not shown)
Reply text: 5.00 to 6.00

Inquiry: Moving on to the next compound: C=CC(=O)N1CCC2(CC1)CCN2C(=O)N(C)[C@H](C(=O)N[C@H]1Cc2nc(cs2)-c2ccc3c(c2)c(c(-c2cccnc2[C@H](C)OC)n3CC)CC(C)(C)COC(=O)[C@@H]2CCCN(N2)C1=O)C(C)C (atropisomer, axis not shown)
Reply text: 6.00 to 7.00

Inquiry: Moving on to the next compound: C=CC(=O)N1CC[C@H](C(=O)N2CC[C@H](C)[C@H]2C(=O)N[C@H]2Cc3cccc(c3)-c3ccc4c(c3)c(c(-c3cccnc3[C@H](C)OC)n4CC)CC(C)(C)COC(=O)[C@@H]3CCCN(N3)C2=O)C1 (atropisomer, axis not shown)
Reply text: 5.00 to 6.00

Data credit: patent US11566007B2
